// provenance: paper PMC4791841

Entries and their IC50 values follow.
Molecular target: TbCet1 (Trypanosoma brucei brucei, UniProt Q582T2)
Sequence (Q582T2 1-253): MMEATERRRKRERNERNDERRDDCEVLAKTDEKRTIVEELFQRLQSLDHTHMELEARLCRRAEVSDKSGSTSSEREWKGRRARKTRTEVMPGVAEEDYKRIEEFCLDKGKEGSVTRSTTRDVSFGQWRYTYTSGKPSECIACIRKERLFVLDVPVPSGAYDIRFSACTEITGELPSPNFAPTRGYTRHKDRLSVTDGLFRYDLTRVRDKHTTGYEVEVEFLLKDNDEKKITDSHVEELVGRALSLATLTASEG
Assay: TLC assay for 32Pi release from [γ-32P]ATP, TbCet1
Details: IC50 TbCet1 by 32P assay, 2.2 nM TbCet1, 0.2 mM ATP, 2 mM Mn2+, 10 min 37°C
A number alone suffices; assume nM.

Examples from the recorded data:
[
  {
    "Molecule": "O=C(/C=C/c1ccccc1)O[C@@H]1C[C@](OC(=O)/C=C/c2ccccc2)(C(=O)O)C[C@@H](OC(=O)/C=C/c2ccccc2)[C@H]1OC(=O)/C=C/c1ccccc1 [Compound 1I, tetracinnamoylquinic acid]",
    "Experimental system": "TbCet1 (Trypanosoma brucei brucei, UniProt Q582T2)",
    "Experimental value": 1600
  },
  {
    "Molecule": "O=C(O)C1OC(Oc2c(-c3ccc(O)c(O)c3)oc3cc(O)cc(O)c3c2=O)C(O)C(O)C1O (stereo not drawn) [Compound 4A, miquelianin]",
    "Experimental system": "TbCet1 (Trypanosoma brucei brucei, UniProt Q582T2)",
    "Experimental value": 180
  }
]

Prompt: Fill in IC50 for record O=C(/C=C/c1ccc(O)c(O)c1)O[C@@H]1C[C@](OC(=O)/C=C/c2ccc(O)c(O)c2)(C(=O)O)C[C@@H](OC(=O)/C=C/c2ccc(O)c(O)c2)[C@H]1OC(=O)/C=C/c1ccc(O)c(O)c1 [Compound 1A, 1,3,4,5-O-tetracaffeoylquinic acid]
Response: 13

Prompt: Quickly give me recorded IC50 for O=C(/C=C/c1ccc(O)cc1)OC1[C@H](O)CC(O)(C(=O)O)C[C@H]1O (stereo partly drawn) [Compound 1N]
Response: 25000

Prompt: Give IC50 for O=C(/C=C/c1ccc(O)c(O)c1)O[C@@H]1[C@H](OC(=O)/C=C/c2ccc(O)c(O)c2)C[C@]2(OC(=O)/C=C/c3ccc(O)c(O)c3)C[C@H]1OC2=O [Compound 6A, 1,4,5-tricaffeoylquinide]
Response: 120

Prompt: Fill in reported IC50 for this entry: O=C(O)/C=C/c1ccc(O)c(O)c1 [Compound 3B, caffeic acid]
Response: 29000

###

Molecular target: MimiCE (Acanthamoeba polyphaga mimivirus, UniProt Q5UQX1);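 also: mimivirus capping enzyme triphosphatase ATPase reaction, radiolabeled ATP hydrolysis to Pi quantified by TLC after 10 min, normalized to no-inhibitor control with 5% DMSO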
Construct: the N-terminal RTPase domain (amino acids [aa] 1 to 237) of mimivirus capping enzyme (MimiCE); HisSmt3 (N, cleaved yes); made in house; host or cells: Escherichia coli
Sequence (Q5UQX1 1-237): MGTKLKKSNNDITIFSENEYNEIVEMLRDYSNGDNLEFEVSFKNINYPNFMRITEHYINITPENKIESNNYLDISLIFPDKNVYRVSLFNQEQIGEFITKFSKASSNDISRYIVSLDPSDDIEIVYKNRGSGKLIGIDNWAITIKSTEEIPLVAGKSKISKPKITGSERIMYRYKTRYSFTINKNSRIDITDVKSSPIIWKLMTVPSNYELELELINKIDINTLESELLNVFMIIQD
Assay: biochemical
Type: biochemical
Details: ratio in parentheses
Reported IC50/IC50 TbCet1, MimiCE by item:
Reply with just the number.

[
  {
    "Compound": "O=C(Oc1cc(C(=O)O[C@@H]2C[C@@](O)(C(=O)O)C[C@@H](OC(=O)c3cc(O)c(O)c(O)c3)[C@@H]2O)cc(O)c1O)c1cc(O)c(O)c(O)c1",
    "IC50/IC50 TbCet1, MimiCE": 15
  },
  {
    "Compound": "O=C(/C=C/c1ccc(O)c(O)c1)O[C@@H]1C[C@](OC(=O)/C=C/c2ccc(O)c(O)c2)(C(=O)O)C[C@@H](O)[C@H]1O",
    "IC50/IC50 TbCet1, MimiCE": 11
  },
  {
    "Compound": "O=C(/C=C/c1ccccc1)O[C@@H]1C[C@](OC(=O)/C=C/c2ccccc2)(C(=O)O)C[C@@H](OC(=O)/C=C/c2ccccc2)[C@H]1OC(=O)/C=C/c1ccccc1",
    "IC50/IC50 TbCet1, MimiCE": 11
  },
  {
    "Compound": "O=C(CCO)c1ccc(O)cc1",
    "IC50/IC50 TbCet1, MimiCE": 131
  },
  {
    "Compound": "Oc1cc(O)c2c(c1)O[C@H](c1ccc(O)c(O)c1)[C@H](O)C2 [Compound 4C, epicatechin]",
    "IC50/IC50 TbCet1, MimiCE": 40
  }
]

Prompt: Input O=C(/C=C/c1ccc(O)cc1)O[C@@H]1[C@H](O)C[C@@](O)(C(=O)O)C[C@H]1OC(=O)/C=C/c1ccc(O)cc1 , output reported IC50/IC50 TbCet1, MimiCE.
Response: 40

Prompt: State, in one line, measured IC50/IC50 TbCet1, MimiCE of O=C(/C=C/c1ccc(O)c(O)c1)OC1[C@H](OC(=O)/C=C/c2ccc(O)c(O)c2)CC(O)(C(=O)O)C[C@H]1OC(=O)/C=C/c1ccc(O)c(O)c1 (stereo in doubt)
Response: 107

Prompt: Return the recorded IC50/IC50 TbCet1, MimiCE value; entry: O=C(O)C1OC(Oc2c(-c3ccc(O)c(O)c3)oc3cc(O)cc(O)c3c2=O)C(O)C(O)C1O (centres unmarked)
Response: 106
